# maps each entry to its max response
Tested on: HEK293
Experiment: Cytotoxic Profiling of Annotated Libraries Using Quantitative High-Throughput Screening (AID 1296008); note: % is set by controls: 0 for no effect and ±100 for the full control effect
Settings: Five cell lines viability, CellTiter-Glo ATP luminescence, 48-72 h; stronger effect = lower value
Records with an inconclusive call do not appear.
quantity.kind: max response (%)

molecule=CC(=O)c1cc2c(cc1O)OC(C)(C)C=C2 tested_on=HEK293 quantity_kind="max response" endpoint_value=0.43
molecule=COc1ccc([C@H]2CNC(=O)C2)cc1OC1CCCC1 tested_on=HEK293 quantity_kind="max response" endpoint_value=-1.53
molecule=Cc1cccc(S(=O)(=O)N2CCC[C@@H]2CCN2CCC(C)CC2)c1 tested_on=HEK293 quantity_kind="max response" endpoint_value=-20.7
molecule=CC(C)[C@@H]1C(=O)N(S(C)(=O)=O)[C@@H]2CCN(C(=O)/C=C/CN3CCCCC3)[C@H]21 tested_on=HEK293 quantity_kind="max response" endpoint_value=-1.35
molecule="COC(=O)c1ccc(OC(CO)C(O)c2ccc(O)c(OC)c2)c(OC)c1 (stereo unspecified)" tested_on=HEK293 quantity_kind="max response" endpoint_value=1.51
molecule="CC1=C(C(=O)O)/C(=C/CO[C@@H]2O[C@H](COC(=O)/C=C/c3ccc(O)cc3)[C@@H](O)[C@H](O)[C@H]2O)C(O)C1 (stereo partly specified)" tested_on=HEK293 quantity_kind="max response" endpoint_value=1.96
